pIC50 for assorted compounds
biological target: Neuropeptide Y receptor type 2 (Homo sapiens); experiment: Partial antagonist activity at neuropeptide Y receptor Y2; assay type: functional
Sequence (P49146 whole entry): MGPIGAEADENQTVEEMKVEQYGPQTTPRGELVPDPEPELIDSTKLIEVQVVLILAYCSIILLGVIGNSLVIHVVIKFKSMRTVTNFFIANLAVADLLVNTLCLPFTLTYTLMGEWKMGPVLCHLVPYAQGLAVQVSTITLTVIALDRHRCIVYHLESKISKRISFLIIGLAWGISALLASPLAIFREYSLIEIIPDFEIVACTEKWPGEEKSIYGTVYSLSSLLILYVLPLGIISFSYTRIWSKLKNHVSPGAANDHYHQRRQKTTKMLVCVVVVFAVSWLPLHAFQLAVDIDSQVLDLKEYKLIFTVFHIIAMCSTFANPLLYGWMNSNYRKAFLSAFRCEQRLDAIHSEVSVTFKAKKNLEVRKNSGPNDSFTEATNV
Conceptually, pIC50 converts a concentration in mol/L into minus its log10.

Answered examples (3):
• COc1ccc(NC(=S)N2CCC(C(O)(c3ccccc3)c3ccccc3)CC2)cc1C(F)(F)F = 5.22
• COc1cccc(NC(=S)N2CCC(C(O)(c3ccccc3)c3ccccc3)CC2)c1 = 5.09
• CCOC(=O)c1cccc(NC(=S)N2CCC(C(O)(c3ccccc3)c3ccccc3)CC2)c1 = 6.62

Lab note: next compound to report on.
(Q) Give the reported value of pIC50 for this record: OC(c1ccccc1)(c1ccccc1)C1CCN(C(=S)Nc2ccc(N3CCCCC3)cc2)CC1
(A) 6.57
